- stated-conditions: pH 2.7
Marks after values point to notes of the source that are not given here.
Collected Log P values appear next to each entry.

molecule="CC(C)OC(=O)C(C(=O)N1CCC(c2nc(C3=NOC(c4c(F)cccc4OS(C)(=O)=O)C3)cs2)CC1)n1nc(C(F)F)cc1C(F)F (centres unmarked) [Example I-17]" test_readout="Log P" recorded_result=3.49^[a]

Using the record for CCOC(=O)C(Br)C(=O)N1CCC(c2nc(C3=NOC(c4c(Cl)cccc4OS(C)(=O)=O)C3)cs2)CC1 (centres unmarked) [Example I-34] , report its Log P. 2.92^[a]

* * *

- Test system: Phytophthora infestans
- method: microbe, parasite or virus in culture
- Format: cell-based
- stated-conditions: 0.25 μg/mL of active ingredient; 8 days incubation
test-readout: Eff. % (inhibition of fungal growth) (%)
Only the number, expressed in %, is required.

Worked examples follow.
compound="C#CCOc1cccc(Cl)c1C1CC(c2csc(C3CCN(C(=O)CC(=O)OCc4ccccc4)CC3)n2)=NO1 (stereo not shown)" test_readout="Eff. % (inhibition of fungal growth)" recorded_result=88
compound="CC(C)(C)OC(=O)C(C(=O)N1CCC(c2nc(C3=NOC(c4c(Cl)cccc4OS(C)(=O)=O)C3)cs2)CC1)n1nc(C(F)F)cc1C(F)F (stereo not shown)" test_readout="Eff. % (inhibition of fungal growth)" recorded_result=100
compound="C#CCOc1ccccc1C1CC(c2csc(C3CCN(C(=O)C(C(=O)OCc4ccccc4)n4nc(C(F)F)cc4C(F)F)CC3)n2)=NO1 (stereo not shown)" test_readout="Eff. % (inhibition of fungal growth)" recorded_result=100
compound="CC(C)OC(=O)C(C(=O)N1CCC(c2nc(C3=NOC(c4ccccc4C=O)C3)cs2)CC1)n1nc(C(F)F)cc1C(F)F (stereo not shown)" test_readout="Eff. % (inhibition of fungal growth)" recorded_result=94
compound="C#CCOc1ccccc1C1CC(c2csc(C3CCN(C(=O)C(C(=O)OC(C)(C)C)n4nc(C(F)F)cc4C(F)F)CC3)n2)=NO1 (stereo not shown)" test_readout="Eff. % (inhibition of fungal growth)" recorded_result=100
compound="C#CCOc1cccc(F)c1C1CC(c2csc(C3CCN(C(=O)C(C(=O)OC(C)C)n4nc(C(F)F)cc4C(F)F)CC3)n2)=NO1 (stereo not shown)" test_readout="Eff. % (inhibition of fungal growth)" recorded_result=100
compound="C#CCOc1cccc(F)c1C1CC(c2csc(C3CCN(C(=O)C(C(=O)OCCOC)n4nc(C(F)F)cc4C(F)F)CC3)n2)=NO1 (stereo not shown)" test_readout="Eff. % (inhibition of fungal growth)" recorded_result=100
compound="C#CCOc1cccc(Cl)c1C1CC(c2csc(C3CCN(C(=O)C(C(=O)OC(C)(C)C)n4nc(C(F)F)cc4C(F)F)CC3)n2)=NO1 (stereo not shown)" test_readout="Eff. % (inhibition of fungal growth)" recorded_result=100

Returns the measured Eff. % (inhibition of fungal growth) for the input compound. Input: C#CCOc1cccc(Cl)c1C1CC(c2csc(C3CCN(C(=O)C(C(=O)OCc4ccccc4)n4nc(C(F)F)cc4C(F)F)CC3)n2)=NO1 (stereo not shown) 100

Reported Eff. % (inhibition of fungal growth), compound C#CCOc1cccc(Cl)c1C1CC(c2csc(C3CCN(C(=O)C(Br)C(=O)OC(C)(C)C)CC3)n2)=NO1 (stereo not shown) : ____ 100
